Value source: the supplement of paper PMC7877785

TEST NAME: self-splicing fitness, log relative to wild type (ln ratio); higher = more splicing; Tetrahymena group I intron in knt gene, E. coli kanamycin selection, DiMSum; sequences stand for … in CUCUCU…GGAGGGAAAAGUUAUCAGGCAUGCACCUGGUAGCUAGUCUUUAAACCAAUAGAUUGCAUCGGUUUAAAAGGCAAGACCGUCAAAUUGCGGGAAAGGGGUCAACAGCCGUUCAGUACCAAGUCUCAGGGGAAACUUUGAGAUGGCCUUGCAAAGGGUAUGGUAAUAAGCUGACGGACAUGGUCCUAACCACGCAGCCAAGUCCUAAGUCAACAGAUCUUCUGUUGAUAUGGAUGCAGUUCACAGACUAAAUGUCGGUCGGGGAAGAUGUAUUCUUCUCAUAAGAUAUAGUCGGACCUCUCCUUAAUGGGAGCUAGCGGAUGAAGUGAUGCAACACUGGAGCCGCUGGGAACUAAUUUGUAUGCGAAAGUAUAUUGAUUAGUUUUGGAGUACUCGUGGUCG;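 also: selection with 25 µg/mL kanamycin versus none on LB agar overnight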
STUDY CONDITIONS: 37 °C
READOUT: self-splicing fitness (ln)
Write no unit; give the number alone.

Need self-splicing fitness (ln), item UAAAAGCAAUAUUACGGUCU
-0.678

Which self-splicing fitness (ln) is listed for AUGAAGCAAUAUUACGUUAU ?
-0.555

Looking for the measured self-splicing fitness (ln) of AUUAAGCAAUAUUACGAUUC , can you help?
-0.797

Give the measured self-splicing fitness (ln) of CACGAGCAAUAUUACGGCGC .
-1.73

What value of self-splicing fitness (ln) has been recorded for this entry: CGGGAGCAAUAUUACGACCU
-0.864

Reported self-splicing fitness (ln), sequence UCCCAGCAAUAUUACGUCUG : ____
-2.85

# lookup: self-splicing fitness (ln) of GGGGAGCAAUAUUACGCCUU
-0.939

Given AACGAGCAAUAUUACGGACA , state its recorded self-splicing fitness (ln).
-1.57

Please report the recorded self-splicing fitness (ln) for UAAGAGCAAUAUUACGUUCA .
-0.735

What measured self-splicing fitness (ln) goes with AGCAAGCAAUAUUACGACUA ?
-0.326

Entry GAGCAGCAAUAUUACGGUCA has what self-splicing fitness (ln)?
-0.118

Any idea what self-splicing fitness (ln) was measured for AGUCAGCAAUAUUACGCGGA ?
-1.79

Field request: self-splicing fitness (ln) | item: AAUUAGCAAUAUUACGUGGG
-3.64

Which value of self-splicing fitness (ln) has been reported for GCCUAGCAAUAUUACGUAUU in the records?
-1.73
